Recorded koff by entry
biological target: T1, human Jagged 2-Fc (R&D Systems Cat #1726-JG-050) (human, UniProt Q9Y219 27-1080, limits assumed); experiment: BLI (Octet), Jagged-Fc on anti-human Fc tips, Fab in solution
T1 construct: Bought reagent; also called hJag2; h Jagged 2; not shown: Fc part
T1 sequence (Q9Y219 27-1080 limits assumed): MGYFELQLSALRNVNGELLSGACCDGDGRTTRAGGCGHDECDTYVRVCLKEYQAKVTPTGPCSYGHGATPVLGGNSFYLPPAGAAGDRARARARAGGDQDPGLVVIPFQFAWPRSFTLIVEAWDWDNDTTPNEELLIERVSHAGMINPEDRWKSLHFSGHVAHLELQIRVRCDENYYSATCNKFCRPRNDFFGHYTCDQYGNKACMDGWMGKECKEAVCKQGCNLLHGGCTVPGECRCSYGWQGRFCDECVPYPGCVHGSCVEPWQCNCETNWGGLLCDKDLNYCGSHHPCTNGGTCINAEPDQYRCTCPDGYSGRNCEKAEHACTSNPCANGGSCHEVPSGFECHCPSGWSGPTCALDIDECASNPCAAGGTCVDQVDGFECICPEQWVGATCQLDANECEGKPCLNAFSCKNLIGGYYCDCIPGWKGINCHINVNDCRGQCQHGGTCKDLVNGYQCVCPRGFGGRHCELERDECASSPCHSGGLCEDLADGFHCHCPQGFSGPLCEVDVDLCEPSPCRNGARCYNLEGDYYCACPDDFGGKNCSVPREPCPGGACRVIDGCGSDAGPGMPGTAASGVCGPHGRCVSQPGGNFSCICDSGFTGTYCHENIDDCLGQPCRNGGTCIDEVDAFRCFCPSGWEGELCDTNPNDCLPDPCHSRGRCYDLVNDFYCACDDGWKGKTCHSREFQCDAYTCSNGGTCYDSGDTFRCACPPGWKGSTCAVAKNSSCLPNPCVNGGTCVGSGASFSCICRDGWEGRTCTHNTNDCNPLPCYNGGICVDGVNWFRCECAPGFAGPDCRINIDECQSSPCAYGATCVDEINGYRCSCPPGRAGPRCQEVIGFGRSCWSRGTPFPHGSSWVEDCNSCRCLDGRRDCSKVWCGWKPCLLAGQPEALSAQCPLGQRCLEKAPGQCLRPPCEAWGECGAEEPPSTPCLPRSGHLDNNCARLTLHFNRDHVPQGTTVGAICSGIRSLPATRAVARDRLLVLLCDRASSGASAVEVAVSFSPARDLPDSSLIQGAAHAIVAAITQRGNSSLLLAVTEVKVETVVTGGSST
API: value field is a number in s⁻¹; no unit string.

Some entries whose results are on file:
>>> val("anti-Jagged 13 Fab (Fab, V domains shown, Fab expressed in E. coli; also called Jag13) VH: EVQLLESGGGLVQPGGSLRLSCAASGFTFSSYAMSWVRQAPGKGLEWVSSIETQGPTTLYADSVKGRFTISRDNSKNTLYLQMNSLRAEDTAVYYCAKTSSAFDYWGQGTLVTVSS VL: DIQMTQSPSSLSASVGDRVTITCRASQSISSYLNWYQQKPGKAPKLLIYASSLQSGVPSRFSGSGSGTDFTLTIGSLQPEDFATYYCQQNVATPLTFGQGTKVEIKR")
0.001
>>> val("4E11 Fab (Fab, V domains shown, C-terminally His-tagged Fab from the periplasm of E. coli) VH: EVQLLESGGGLVQPGGSLRLSCAASGFTFSSYAMSWVRQAPGKGLEWVSSIEPMGQLTEYADSVKGRFTISRDNSKNTLYLQMNSLRAEDTAVYYCAKDIGGRSAFDYWGQGTLVTVSS VL: DIQMTQSPSSLSASVGDRVTITCRASQSISSYLNWYQQKPGKAPKLLIYAASSLQSGVPSRFSGSGSGTDFTLTISSLQPEDFATYYCQQALDAPLMFGQGTKVEIKR")
0.00057

API: the following record is the query input.
Reported koff for 4D11 Fab (Fab, V domains shown, C-terminally His-tagged Fab from the periplasm of E. coli; also called anti-Jagged Fab 4D11; Fab 4D11) VH: EVQLLESGGGLVQPGGSLRLSCAASGFTFSSYAMSWVRQAPGKGLEWVSSIDPEGRQTYYADSVKGRFTISRDNSKNTLYLQMNSLRAEDTAVYYCAKDIGGRSAFDYWGQGTLVTVSS VL: DIQMTQSPSSLSASVGDRVTITCRASQSISSYLNWYQQKPGKAPKLLIYAASSLQSGVPSRFSGSGSGTDFTLTISSLQPEDFATYYCQQTVVAPPLFGQGTKVEIKR : what is it?
0.00045
